Where these numbers come from: patent US20230312529A1

pIC50: −log10 of the molar value.
Here we list compounds with their recorded pIC50 when tested on PDGFRβ (Homo sapiens (Human), UniProt P09619).
Sequence (P09619 33-1106): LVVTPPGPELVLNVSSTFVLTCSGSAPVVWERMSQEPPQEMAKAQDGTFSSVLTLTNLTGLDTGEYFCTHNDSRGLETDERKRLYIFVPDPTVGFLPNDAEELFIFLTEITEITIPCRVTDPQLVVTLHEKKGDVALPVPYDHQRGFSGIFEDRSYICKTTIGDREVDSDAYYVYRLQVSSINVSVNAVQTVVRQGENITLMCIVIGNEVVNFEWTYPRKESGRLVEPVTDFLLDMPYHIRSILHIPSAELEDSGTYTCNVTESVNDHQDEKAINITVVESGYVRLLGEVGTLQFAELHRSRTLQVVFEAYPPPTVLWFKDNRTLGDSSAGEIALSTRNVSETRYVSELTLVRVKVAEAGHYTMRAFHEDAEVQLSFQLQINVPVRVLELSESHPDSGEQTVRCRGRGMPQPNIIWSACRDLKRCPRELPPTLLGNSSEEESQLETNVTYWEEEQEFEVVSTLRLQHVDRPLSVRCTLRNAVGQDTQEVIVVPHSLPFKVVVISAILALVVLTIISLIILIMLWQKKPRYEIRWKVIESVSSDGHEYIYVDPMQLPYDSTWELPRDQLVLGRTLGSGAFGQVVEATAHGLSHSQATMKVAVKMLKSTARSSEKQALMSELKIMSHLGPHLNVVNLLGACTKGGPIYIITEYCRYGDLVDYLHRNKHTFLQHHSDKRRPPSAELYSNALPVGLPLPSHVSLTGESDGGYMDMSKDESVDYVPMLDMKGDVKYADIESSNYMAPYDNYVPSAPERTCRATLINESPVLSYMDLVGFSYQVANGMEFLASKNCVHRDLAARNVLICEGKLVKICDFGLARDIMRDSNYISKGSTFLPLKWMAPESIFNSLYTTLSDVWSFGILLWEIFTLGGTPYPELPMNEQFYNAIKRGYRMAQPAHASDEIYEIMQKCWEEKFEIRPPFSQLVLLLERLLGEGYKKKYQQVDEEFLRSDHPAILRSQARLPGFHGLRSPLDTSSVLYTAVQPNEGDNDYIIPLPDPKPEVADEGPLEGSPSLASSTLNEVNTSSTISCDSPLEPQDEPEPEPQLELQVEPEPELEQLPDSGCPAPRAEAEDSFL
quantity-kind: pIC50

{"molecule-smiles": "Cc1cnc(Nc2ccc(N3CCOCC3)cc2)nc1Nc1ccc2cn[nH]c2c1", "quantity-kind": "pIC50", "numeric-value": 8.38}
{"molecule-smiles": "Cc1cnc(Nc2ccc(N3CCC(F)(F)CC3)cc2)nc1Nc1ccc2cn[nH]c2c1", "quantity-kind": "pIC50", "numeric-value": 6.99}
{"molecule-smiles": "COc1cc(Nc2ncc(C)c(Nc3ccc4cn[nH]c4c3)n2)ccc1N1CCN(C)CC1", "quantity-kind": "pIC50", "numeric-value": 8.59}
{"molecule-smiles": "Cc1cnc(Nc2ccc(N3CCC(N4CCN(C)CC4)CC3)cc2)nc1Nc1ccc2cn[nH]c2c1", "quantity-kind": "pIC50", "numeric-value": 7.92}
{"molecule-smiles": "Cc1cnc(Nc2ccc(N3CCN(C)CC3)cc2)nc1Nc1ccc2cn[nH]c2c1", "quantity-kind": "pIC50", "numeric-value": 8.06}
{"molecule-smiles": "COc1cc(N2CCN(C)CC2)ccc1Nc1ncc(C)c(Nc2ccc3cn[nH]c3c2)n1", "quantity-kind": "pIC50", "numeric-value": 7.14}
{"molecule-smiles": "Cc1cnc(Nc2ccc(N3CCNCC3)cc2)nc1Nc1ccc2cn[nH]c2c1", "quantity-kind": "pIC50", "numeric-value": 7.16}
{"molecule-smiles": "Cc1cnc(Nc2ccc(N3CCN(C)CC3)cc2)nc1Nc1ccc2c(C)n[nH]c2c1", "quantity-kind": "pIC50", "numeric-value": 8.10}
